system: Human immunodeficiency virus 1; assay: Concentration required for 50% protection of MT-4 cells against the cytopathic effect of HIV-1; assay type: functional, organism-based; details: Human immunodeficiency virus 1, MT4
quantity: pIC50
Note on pIC50: it is the negative log10 of concentration, concentration in mol/L.

COc1ccc2c3c1[nH]c(=O)n3C[C@H](C)N(CC=C(C)C)C2; 5.18
CC(C)=CCN1Cc2c(I)ccc3[nH]c(=S)n(c23)C[C@@H]1C; 7.32
CC(C)=CCN1Cc2cc(C(F)(F)F)cc3nc(O)n(c23)C[C@@H]1C; 5.23
CC(C)=CCN1Cc2ccc(Br)c3nc(S)n(c23)C[C@@H]1C; 5.97
CC(C)=CCN1Cc2c(C#N)ccc3nc(O)n(c23)C[C@@H]1C; 5.94

Observed pIC50 on Human immunodeficiency virus 1 for "C[C@H]1Cn2c(=O)[nH]c3cc([N+](=O)[O-])cc(c32)CN1CC1CC1" , please.
4.48

Let us now turn to "CC(C)=CCN1Cc2c(I)ccc3[nH]c(=O)n(c23)C[C@@H]1C"
7.06

Would you kindly repeat that for "CC(=O)Nc1cc2c3c(c1)[nH]c(=O)n3C[C@H](C)N(CC1CC1)C2" ?
3.80

Follow-up item: "CC(C)=CCN1Cc2cc(C(F)(F)F)cc3nc(S)n(c23)C[C@@H]1C"
6.31
